The reported measurements were obtained from patent US10975056B2.

EC50 values by entry
- System: erythroid progenitor cells (EPCs)
- run_description: Fetal hemoglobin (HbF) ELISA in day 7 erythroid progenitor cells;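 also: for fetal hemoglobin induction normalized to vehicle-treated cells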
- Format: cell-based, human
- settings: Homo sapiens, Erythroid progenitor cell, HbF ELISA, day 7 EPCs, 5 days; read-out: EPC ELISA (pEC50 category) (converted)

Answered examples (5):
Task item: Give EC50 (erythroid progenitor cells (EPCs)) of the following compound: COc1c(C#N)c(SC(C(N)=O)c2ccccc2)nc(N2CCC(N)CC2)c1C#N (stereo not drawn) [Example 693, 2,2,2-trifluoroacetate]
Reply: < 316 nM

Task item: Recall the recorded EC50 for CCc1c(C#N)c(N[C@@H](C(N)=O)c2ccccc2)nc(N2CCCNCC2)c1C#N [Example 41] with erythroid progenitor cells (EPCs) and state it.
Reply: 1000 to 31600 nM

Task item: Provide value of EC50 for this record tested with erythroid progenitor cells (EPCs): CCc1c(C#N)c(SCc2ccc(CNC(C)=O)cc2)nc(N(C)Cc2nnc[nH]2)c1C#N [Example 349]
Reply: 1000 to 31600 nM

Task item: Please provide the recorded EC50 for CCc1c(C#N)c(SC(C(N)=O)c2cccc(OCCN(C)C)c2)nc(N(C)C)c1C#N (stereo not drawn) [Example 407] , tested on erythroid progenitor cells (EPCs).
Reply: 1000 to 31600 nM

Task item: Reported EC50 for erythroid progenitor cells (EPCs), given CN(C)c1nc(SC(C(N)=O)c2ccccc2)c(C#N)c(C2CC2)c1C#N (stereo not drawn) [Example 127] ?
Reply: 316 to 1000 nM

---
Task item: Hi! What's the reported EC50 for CCc1c(C#N)c(SC(C(N)=O)c2ccccc2)nc(N2CCC[C@H](NCC(C)(C)C)C2)c1C#N (stereo partly drawn) [Example 651] on erythroid progenitor cells (EPCs)?
Reply: < 316 nM

Task item: What is its EC50 for erythroid progenitor cells (EPCs)? Entry: CCc1c(C#N)c(SCc2ccc(CNC(C)=O)cc2)nc(N2CCC(OCCOC(=O)[C@@H](N)C(C)C)CC2)c1C#N [Example 264]
Reply: > 31600 nM

====

- Test system: erythroid progenitor cells (EPCs)
- run_description: Fetal hemoglobin (HbF) ELISA in day 7 erythroid progenitor cells;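 also: for fetal hemoglobin induction normalized to vehicle-treated cells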
- Format: cell-based, human
- settings: Homo sapiens, Erythroid progenitor cell, HbF ELISA, day 7 EPCs, 5 days; read-out: EPC ELISA (pEC50 category) (converted)
measured_property: EC50

Worked cases, answers included:
Task item: Requested field: EC50. Item: CCc1c(C#N)c(SCc2cnn(CCO)c2)nc(N2CCC(N)CC2)c1C#N
Reply: 1 to 31.6 µM

Task item: Would you mind telling me what EC50 value was observed for CCc1c(C#N)c(SC(C(N)=O)c2ccccc2)nc(N2CCNC(=O)C2)c1C#N (stereo not drawn) ?
Reply: < 0.316 µM

Task item: Dear colleague, I am looking for the recorded EC50 of the following compound: CCc1c(C#N)c(SC(C(N)=O)c2ccccc2)nc(N(C)CCN2CCNCC2)c1C#N (stereo not drawn)
Reply: < 0.316 µM

Task item: # lookup: EC50 of CCc1c(C#N)c(SCc2ccc(CNC(C)=O)cc2)nc(N2CCNC(=O)C2)c1C#N
Reply: 1 to 31.6 µM

Task item: Fill blank: measured EC50 of the compound CCc1c(C#N)c(SC(C(N)=O)c2ccccc2)nc(N(C)CC(=O)NC2(CO)COC2)c1C#N (stereo not drawn) is ____.
Reply: 0.316 to 1 µM

Here is the next item to consider.
Task item: What value of EC50 has been recorded for this entry: CCc1c(C#N)c(SC(C(N)=O)c2ccccc2)nc(N2CCOC(CN3CCCC3)C2)c1C#N (stereo not drawn)
Reply: < 0.316 µM
